Documented pIC50 across a set of compounds
tested on: p70S6K; assay: Activity of endogenous p70S6K immunoprecipitated from H4-II-E-C3 hepatoma cells; format: cell-based, rat; details: insulin-stimulated H4 cells; insulin plus increasing inhibitor concentrations for 30 minutes; read-out: IC50 for inhibition of p70S6K activity
pIC50: −log10 of the molar value.
Property name: pIC50

1) CO[C@H]1C[C@@H]2CC[C@@H](C)[C@@](O)(O2)C(=O)C(=O)N2CCCC[C@H]2C(=O)O[C@H]([C@H](C)C[C@@H]2CC[C@@H](O)[C@H](OC)C2)CC(=O)[C@H](C)/C=C(\C)[C@@H](O)[C@@H](OC)C(=O)[C@H](C)C[C@H](C)/C=C/C=C/C=C/1C [rapamycin]: ~8.70
2) COC[C@H]1OC(=O)c2coc3c2[C@@]1(C)C1=C(C3=O)[C@@H]2CCC(=O)[C@@]2(C)C[C@H]1OC(C)=O [wortmannin]: ~7.52
